- Tested on: A549 NSCLC
- test-description: NCI tumour cell line growth inhibition, 48 h
Reported TGI is given for each of the following compounds.

# smiles-str, TGI
measured = [
    ("COc1ccc2nc3cc(Cl)ccc3c(NCCCCCC(=O)NC(COc3cnc4c(ccc5cccnc54)c3)COc3cnc4c(ccc5cccnc54)c3)c2c1", "> 100 µM"),
    ("O=C(Nc1sccc1S(=O)(=O)c1ccccc1)c1cccnc1", "> 100 µM"),
    ("CSc1nc(NC2CCCC2)c2cc[nH]c2n1", "> 100 µM"),
]

---

- Test system: NCI-H226 lung
- test-description: NCI tumour cell line growth inhibition, 48 h
Reported TGI is given for each of the following compounds.
property-name: TGI

# compound, test-target, property-name, result
measured = [
    ("CCOC(=O)[C@@]1(C)C=C2O[C@@H]3OC4(CCCCC4)O[C@@H]3C2=C2C(O)=CC=C(O)[C@]21C(=O)OC", "NCI-H226 lung", "TGI", "> 68 µM"),
    ("CC(=O)O/C=C(/C=C/OC(C)=O)C(C/C=C(\\C)C#CC=C(C)C)OC(C)=O (stereo not given)", "NCI-H226 lung", "TGI", "> 100 µM"),
    ("CC1(C)OC2OC(COC(=O)C=[N+]=[N-])C3OC(C)(C)OC3C2O1 (stereo not given)", "NCI-H226 lung", "TGI", "> 100 µM"),
    ("COc1ccc(CCn2cnc3ccccc32)cc1", "NCI-H226 lung", "TGI", "> 100 µM"),
    ("CN(C)c1ccc(/C=N/Nc2nc3ccccc3c(=O)n2-c2ccccc2)cc1", "NCI-H226 lung", "TGI", "> 100 µM"),
    ("Brc1ccc(N=NN2CCCCC2)cc1", "NCI-H226 lung", "TGI", "> 100 µM"),
    ("COc1cccc(N2C(=O)C3c4[nH]c5ccccc5c4C4c5ccccc5CCC4C3C2=O)c1 (stereo not given)", "NCI-H226 lung", "TGI", "> 7.52 µM"),
    ("CCOC/N=C(/N)NC#N", "NCI-H226 lung", "TGI", "> 100 µM"),
    ("Cc1cnc2c(C)ccc([N+](=O)[O-])c2c1NCCCN(C)C", "NCI-H226 lung", "TGI", "> 100 µM"),
    ("O=C1CC(O)C=C1Nc1ccc(Cl)cc1 (stereo not given)", "NCI-H226 lung", "TGI", "> 100 µM"),
]

---

- Test system: SR leukemia
- test-description: NCI tumour cell line growth inhibition, 48 h; in the data active means GI50 below about 0.43 µM; inactive means the rest
Outcomes: active, inactive

# smiles-str, test-target, group-label
measured = [
    ("COc1ccc2c(c1)[nH]c(=O)c1c3cc(C)c(C)cc3cn21", "SR leukemia", "active"),
    ("CS(=O)(=O)CCNCc1nc(-c2ccc3ncnc(Nc4ccc(F)c(Cl)c4)c3c2)cs1", "SR leukemia", "inactive"),
    ("COc1cc2c3c(n(C)c(=O)c2cc1OC)-c1cc2c(cc1/C3=C\\CCCCCN)OCO2", "SR leukemia", "active"),
]

---

- Test system: DU-145 prostate
- test-description: NCI tumour cell line growth inhibition, 48 h
property-name: TGI

# compound, result
rows = [
    ("Brc1ccc(N=NN2CCCCC2)cc1", "> 100 µM"),
    ("Cn1ccnc1Sc1ccc(/C=N/NC(=O)c2ccccc2O)cc1[N+](=O)[O-]", "> 100 µM"),
    ("COC1C(O)CC(OC2C(C)OC(Oc3cc(O)c4c(O)c5c(cc4c3)C[C@@H]([C@H](OC)C(=O)[C@@H](O)[C@@H](C)O)[C@H](OC3CC(OC4CC(OC6CC(C)(O)C(O)C(C)O6)C(O)C(C)O4)C(O)C(C)O3)C5=O)CC2OC(C)=O)OC1C (stereo not given in full)", "> 100 µM"),
    ("COc1ccc(-c2nn3ncccc3c2-c2ccnc(Nc3ccc(Cl)c(C(F)(F)F)c3)n2)cc1", "> 25 µM"),
    ("CC(C)(CO)CNc1cc(=O)[nH]c(N)n1", "> 100 µM"),
    ("CCN1CC(C)Cn2c(=O)[nH]c3cc(Br)cc1c32 (stereo not given)", "> 100 µM"),
    ("Cc1nc2ccc(S(=O)(=O)Nc3ccc(Cl)cc3)cc2c(=O)n1NC(=O)CNc1ccc(Cl)cc1", "> 100 µM"),
    ("Cc1cc2c(cc1Cl)Sc1nnc(Nc3ccccc3)n1S2(=O)=O", "> 100 µM"),
    ("CCC1C(=O)C[C@H]2[C@@H]3C(O)CC4=CC(=O)CC[C@]4(C)[C@H]3CC[C@]12C (stereo not given in full)", "> 50 µM"),
    ("COc1cc(-c2nc3cc(F)ccc3s2)ccc1O", "> 100 µM"),
]

---

- Tested on: MDA-MB-231 breast
- test-description: NCI tumour cell line growth inhibition, 48 h
Reported TGI is given for each of the following molecules.

# smiles-str, TGI
records = [
    ("O=C1NCc2ccc3c(-c4cccc(Cl)c4)c[nH]c3c21", "> 25.7 µM"),
    ("O=C(Nc1sccc1S(=O)(=O)c1ccccc1)c1cccnc1", "> 100 µM"),
    ("Cc1c(-c2c(C)c3ccccc3n2S(=O)(=O)c2ccccc2)n(S(=O)(=O)c2ccccc2)c2ccccc12", "> 100 µM"),
    ("CC(C)Oc1c(-c2c(OC(C)C)c(=O)c2=O)c(=O)c1=O", "> 57.2 µM"),
]

---

- System: SNB-75 CNS
- test-description: NCI tumour cell line growth inhibition, 48 h

# compound, TGI
data = [
    ("COc1ccc2c(c1)O[C@@H]1C(O)Oc3cc(OC)c(OC)cc3[C@]1(O)C2=O (stereo partly drawn)", "> 100 µM"),
    ("C=CCn1c2c(c3ccccc3c1=O)C(=O)c1ccccc1-2", "> 100 µM"),
    ("O=c1oc2cc(OS(=O)(=O)c3ccc(F)cc3)ccc2c2c1CCCCC2", "> 100 µM"),
]

---

- Tested on: MDA-MB-435
- test-description: NCI tumour cell line growth inhibition, 48 h
property-name: TGI

# smiles-str, result
data = [
    ("Cc1ccc(S(=O)(=O)N/C(=C\\C=C\\c2ccccc2)C(=O)C(C)(C)C)cc1", "> 100 µM"),
    ("CC(=O)O[C@H]1CC[C@@]2(C)C(=CC[C@@H]3[C@@H]2CC[C@]2(C)C(c4cccnc4)=CC[C@@H]32)C1", "> 100 µM"),
    ("CC(=O)c1ccc(N=Nc2ccc3nonc3c2N)cc1", "> 100 µM"),
    ("COC(=O)N[C@H]1CCc2c(Br)c(OC)c(OC)c(OC)c2-c2ccc(SC)c(=O)cc21", "< 0.01 µM"),
]

---

- System: HOP-92 NSCLC
- test-description: NCI tumour cell line growth inhibition, 48 h
property-name: TGI (µM)

# compound, unit-spec, value-comparator, numeric-value
records = [
    ("Cc1ccc(F)cc1NC(=O)O/N=C(\\Cl)C(C)C", "µM", "=", 7.07),
    ("Cc1ccc(C(=O)N(C2CCCCC2)C2CCCCC2)cc1N=NN(C)C", "µM", "=", 23.4),
    ("CC1OC(OCC2OC(Oc3c(-c4ccc(O)cc4)oc4cc(O)cc(O)c4c3=O)C(OC3OCC(O)(CO)C3O)C(O)C2O)C(O)C(O)C1O (centres undefined)", "µM", ">", 100),
    ("COc1ccc(N=C2CSc3nnc(-c4cc(F)c(Cl)cc4Cl)n3N2)cc1", "µM", "=", 19.1),
    ("COC1=CC(=O)c2ccccc2C1(CCC=C(C)C)C1=NC(C)(C)CO1 (centres undefined)", "µM", ">", 100),
    ("COc1ccc2cc(C(=O)/C=C/c3cc(OC)c(OC)c(OC)c3)ccc2c1", "µM", ">", 50),
    ("N#CC1=C2Sc3ccccc3N2[C@H](c2ccccc2)[C@H]2COC(=O)[C@@H]12", "µM", ">", 100),
    ("CC(C)(CN)CN", "µM", ">", 100),
    ("Cc1ccc(-[n+]2c3cc(N)c(C)cc3nc3cc(C)c(Nc4ccccc4)cc32)cc1", "µM", "=", 0.556),
]

---

- System: HL-60(TB) leukemia
- test-description: NCI tumour cell line growth inhibition, 48 h
Reported TGI is given for each of the following compounds.
property-name: TGI

# compound, property-name, result
data = [
    ("O=C(O)c1c(-c2cccc3ccccc23)sc(-c2cccc3ccccc23)c1C(=O)O", "TGI", "> 100 µM"),
    ("O=C(Oc1ccc(Cl)cc1Cl)c1ccccc1Nc1ccnc(C(F)(F)F)c1", "TGI", "> 100 µM"),
    ("CC(=O)NCCCCNCCCNC(C)=O", "TGI", "> 100 µM"),
    ("Cc1ccc(F)cc1NC(=O)O/N=C(\\Cl)C(C)C", "TGI", "> 21.2 µM"),
    ("Cc1c(C)c(C)c(-n2[nH]c(=O)n(C)c2=O)c(C)c1C", "TGI", "> 100 µM"),
    ("CCOc1cc2ncc(C#N)c(Nc3ccc(OCc4cccc(F)c4)c(Cl)c3)c2cc1NC(=O)CC1CCSS1 (stereo unspecified)", "TGI", "> 25 µM"),
]
